Hey, just so you know, these numbers are from patent US20180086804A1.

Target: T1, HLA-DR7 (HLA-DRB1*07:01) (human)
T1 construct: mature; purified from homozygous EBV-transformed lymphoblastoid cells with antibody L243
Assay: competition ELISA vs biotin-YKL
No end group written: not given here.
Readout label: relative affinity

INSERT INTO results (binder, readout_label, number) VALUES
  ('PMLVPVPVSEPVPEP-NH2 [CCNB1 87-101]', 'relative affinity', 231),
  ('PEIGDFAFVTDNTYT-NH2 [CCNB1 264-278]', 'relative affinity', 86),
  ('HFPPSQIAAGAFCLA-NH2 [CCNB1 338-352]', 'relative affinity', 1400),
  ('LALKILDNGEWTPTL-NH2 [CCNB1 351-365]', 'relative affinity', 624),
  ('LDYDMVHFPPSQIAA-NH2 [CCNB1 332-346]', 'relative affinity', 20),
  ('GEWTPTLQHYLSYTE-NH2 [CCNB1 359-373]', 'relative affinity', 0.4),
  ('QGLTKHMTVKNKYAT-NH2 [CCNB1 392-406]', 'relative affinity', 533);
